Recorded pKd values for a group of binders are listed next.
Target: T1, human c-Met antigen (Sino Biological) (human, UniProt P08581 25-932)
T1 construct: Bought antigen used as the analyte in SPR; also called hepatocyte growth factor receptor; HGFR
T1 sequence (P08581 25-932 limits assumed): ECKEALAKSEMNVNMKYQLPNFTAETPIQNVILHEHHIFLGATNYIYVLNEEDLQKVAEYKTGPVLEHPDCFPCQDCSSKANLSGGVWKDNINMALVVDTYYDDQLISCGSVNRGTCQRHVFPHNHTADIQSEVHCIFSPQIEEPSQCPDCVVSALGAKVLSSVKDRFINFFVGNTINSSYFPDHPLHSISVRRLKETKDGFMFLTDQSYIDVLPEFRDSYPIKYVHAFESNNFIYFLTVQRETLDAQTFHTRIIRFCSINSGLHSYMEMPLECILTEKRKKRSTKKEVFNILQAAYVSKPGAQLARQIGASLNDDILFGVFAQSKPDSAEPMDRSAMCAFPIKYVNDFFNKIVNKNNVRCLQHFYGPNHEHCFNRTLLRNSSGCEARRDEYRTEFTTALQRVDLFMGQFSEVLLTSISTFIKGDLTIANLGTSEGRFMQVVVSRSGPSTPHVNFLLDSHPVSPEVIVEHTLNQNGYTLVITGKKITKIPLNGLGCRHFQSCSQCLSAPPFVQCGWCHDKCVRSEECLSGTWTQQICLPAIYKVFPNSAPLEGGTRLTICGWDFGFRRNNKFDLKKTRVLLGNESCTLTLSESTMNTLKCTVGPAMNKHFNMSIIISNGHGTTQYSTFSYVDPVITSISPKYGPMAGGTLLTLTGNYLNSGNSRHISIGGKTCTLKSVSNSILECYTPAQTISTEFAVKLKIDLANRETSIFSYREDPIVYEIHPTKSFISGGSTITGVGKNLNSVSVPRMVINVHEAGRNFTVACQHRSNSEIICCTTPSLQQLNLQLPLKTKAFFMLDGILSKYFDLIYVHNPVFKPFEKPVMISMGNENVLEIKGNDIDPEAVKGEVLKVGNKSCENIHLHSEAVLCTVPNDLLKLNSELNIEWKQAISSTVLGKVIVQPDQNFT
Assay: SPR (BIACORE T200), antibody captured on protein A CM5 chip, human c-Met 0.25 to 2 nM as analyte
Note on units: pKd is unitless, being -log10 of a concentration expressed in mol/L.

Solved cases below.
VH0/Vk2 (antibody, V domains shown, also called anti-cMet candidate antibody VH0/Vk2) VH: QVQLVQSGAEVKKPGESLRISCQGSGYSFPTHWITWVRQMPGKGLEWMGTIDPTDSYNFYGPSFQGHVTISADSSSSTAYLQWSSLKASDTAMYYCARDGNYYDSRGYYYDTFDMWGQGTLVTVSS VL: DIQMTQSPSSLSASVGDRVTITCRASQGISTYLAWYQQKPGKAPKLLIYSASTLESGVPSRFSGSGSGTDFTLTISSLQPEDFATYYCQQADSFPLTFGGGTKVEIK | 9.29
VH5/Vk0 (antibody, V domains shown, CDR-grafted variant of the IgG1-based anti-cMet antibody 1E4; also called anti-cMet candidate antibody VH5/Vk0) VH: QVQLVQSGAEVKKPGSSVKVSCQGSGYSFPTHWITWVRQAPGQGLEWMGTIDPTDSYNFYGPSFQGRVTITADSSTSTAYMELSSLRSEDTAVYYCARDGNYYDSRGYYYDTFDMWGQGTLVTVSS VL: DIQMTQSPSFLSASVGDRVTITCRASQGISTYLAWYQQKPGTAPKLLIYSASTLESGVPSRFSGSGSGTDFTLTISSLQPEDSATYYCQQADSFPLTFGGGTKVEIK | 9.45

Measured pKd, VH4/Vk2 (antibody, V domains shown, CDR-grafted variant of the IgG1-based anti-cMet antibody 1E4; also called anti-cMet candidate antibody VH4/Vk2) VH: QVQLVQSGAEVKKPGSSVKVSCQGSGYSFPTHWITWVRQAPGQGLEWMGTIDPTDSYNFYGPSFQGRVTITADSSTSTAYMELSSLRSEDTAMYYCARDGNYYDSRGYYYDTFDMWGQGTLVTVSS VL: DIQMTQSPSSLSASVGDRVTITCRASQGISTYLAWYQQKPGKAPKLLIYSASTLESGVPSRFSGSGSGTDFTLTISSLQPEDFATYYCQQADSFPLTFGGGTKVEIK : 9.37
